system: MS2 coat protein; assay: apparent KD of MS2 coat protein; designed switch direction (-1 OFF switch, 1 ON switch): -1; higher = weaker reporter binding; settings: input ligand: microRNA oligo, concentration not stated
parameter: apparent KD of MS2 coat protein (nM)
Please reply with the bare figure in nM and do not write the unit itself.

Record excerpt, results attached:
[[record]]
sequencecontent = "AGCUGUGGCCGAGGAUAUCACGAACCAUGGAAAACCAUGGAACUCCUACAUGAGGAUCACCCAUGUGAGAAGGCGGUCUCAGCA [Eli eng2 - 020] (Eterna round: R96, puzzle: Exclusion NG 2)"
testedtarget = "MS2 coat protein"
measurement = 33.4

[[record]]
sequencecontent = "UUGAUACAUACCUCCAUAAACAUGAGGAUCACCCAUGUAAGUGAGGAUAUAGAUUGAUUAGUAUACUAGAAGGCACUUAGAUAU [JR_ExcNG3_Sub044] (Eterna round: R96, puzzle: Exclusion NG 3)"
testedtarget = "MS2 coat protein"
measurement = 8.91


Now for another entry.
Entry CCUAGUGUCGGAGGAUAUCCUACACAAACCUUAGGAGAAGGCCGACAUGAGGAUCACCCAUGUAAAACCUAAACCUAAAAUCAA [Raesusbi] (Eterna round: R96, puzzle: Exclusion NG 1) , tested on MS2 coat protein, has a reported apparent KD of MS2 coat protein of 12.8

====

tested on: MS2 coat protein; assay: apparent KD of MS2 coat protein; designed switch direction (-1 OFF switch, 1 ON switch): -1; higher = weaker reporter binding; conditions: input ligand: FMN 200 uM
Here the recorded apparent KD of MS2 coat protein is given for each entry.
// note: answer is a bare numeric in nM

Answered examples (3):
[[record]]
sequencecontent = "CCAAGCUUAUUCAUUAACCACAUGAGGAUCACCCAUGUAUAGGCAAUUAUGACUGGGCCAUCUGGUGCUCGUCUUAU [Sensor-V1 #29] (Eterna round: R97, puzzle: Sensor, turn-off variant 1)"
testedtarget = "MS2 coat protein"
endpointunit = "nM"
measurement = 16.2

[[record]]
sequencecontent = "GUGAUCUAUCAUGGGAUAAACAUGAGGAUCACCCAUGUAAACAAGUUUUUUGCUCGUCUUAUAAUAAGAUAGAUCAC [Antenna 2 - Jieux - Sensor, turn-off variant 1] (Eterna round: R97, puzzle: Sensor, turn-off variant 1)"
testedtarget = "MS2 coat protein"
endpointunit = "nM"
measurement = 21.1

[[record]]
sequencecontent = "UUUAGUUUAGGAUAUGUAGAUUUUAACAUGAGGAUCACCCAUGUAGAUCCUGAAUUAACUACAGAAGGGAGCAUUU [Mod of Brourd 15 - Jieux - Exclusion 5] (Eterna round: R97, puzzle: Exclusion 5)"
testedtarget = "MS2 coat protein"
endpointunit = "nM"
measurement = 70.5


// below: apparent KD of MS2 coat protein requested for another sequence
Measured apparent KD of MS2 coat protein for this entry GCUGUCACCGUUAGGAUAUGUGAUUAAAUAUGAUCGCAGAAGGAACAUGAGGAUCACCCAUGUCGAUCCGUCCG [Eternabot (L1) Solution 36] (Eterna round: R97, puzzle: Brourd's mod of Exclusion 4) on MS2 coat protein: 34.8

====

test system: K4 kissing-loop RNA reporter; experiment: apparent KD of K4 kissing-loop reporter; higher = weaker reporter binding; conditions: Eterna round: R107; input ligand: arginine 13.2 mM;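 further: bound reporter read as fluorescence of individual clusters on recovered sequencing chips by microscopy, with normalized cluster intensities fitted with a binding model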
Values of apparent KD of K4 kissing-loop reporter greater than or equal to 300 nM map to condition met; values below map to condition not met.

[[record]]
sequencecontent = "GGAGUUACCUGGGAUACCAGUCGGAGUCCCAGAGCUCAGAGUGAUGUUCUGGGAUGUUUCGGCCCUUGGCAGCUCUGGGACUCCC [#2 Exclusion - Theophylline B Attempt #12 (HarryS)]"
classassignment = "condition met"

[[record]]
sequencecontent = "GCAUGAUAGUAAGGAUAUAGAUAAUCCUUAUAUAUAUCGAGUGAUGUUCGAUGUGCCAAGGUACAUCUAGAAGGUACUGUAAGGU [Same State FMN B GF 17]"
classassignment = "condition not met"

[[record]]
sequencecontent = "UUUAUGAUGUCGGCCGCCACUGGAUUAAUAUGUGUGUAAUCUAGUUCUGAGUGAUGUUUAGAGUCCAGGACCGGGACAUUUGUUA [#11 K4 Tryptophan B Exclusion]"
classassignment = "condition met"

[[record]]
sequencecontent = "GCGCGGCUCAGUGAUGUUGAGCCUCGGAAACGAGGACCGGUACGGCCGCCACUCGUCCGCGCAGCUGAGGCAAAAGCCUCGGCUA [Omei KL Tryp A SS B v2]"
classassignment = "condition met"

[[record]]
sequencecontent = "UAUGAAGGUGGAGGAUAUUGAUUGAAUCUUGGUCAGGAGUGAUGUUCCGGGAAGCCUUGGAUUCAUCGAGAAGGCCAAGGAUAGU [Extra 3]"
classassignment = "condition met"


Problem: Identify whether the reported apparent KD of K4 kissing-loop reporter of the following sequence is 300 nM or greater: UGCGCUGUGUACUGUAAUGUUAUGCGGGAUACCAGAGUCUUUUUAUUCCCUUGGCAGCUUGAGUGAUGUUUGAUGCCGUUCUUGU [plpkmullin]
Result: condition met

====

test system: MS2 coat protein; assay: apparent KD of MS2 coat protein; designed switch direction (-1 OFF switch, 1 ON switch): -1; higher = weaker reporter binding; conditions: input ligand: FMN 200 uM
sequences and their reported apparent KD of MS2 coat protein
Dear colleague, please return just the value in nM, with no unit written.

[[record]]
sequencecontent = "AUAAAGUGAGGAUAUAUAAGACACGGUGAUACACCGUGAAAAUAGAAGGUACAUGAGGAUCACCCAUGUAGGGC [Mod of Anonveat 18 - Jieux - Exclusion 4] (Eterna round: R97, puzzle: Exclusion 4)"
endpointunit = "nM"
measurement = 33.6

[[record]]
sequencecontent = "UUAAAUCAUGUAGGAUAUGCGUGGCGAAGCUAUGCAGAAGGACAUGAGGAUCACCCAUGUCUUUCCGUCUGCGUACAGAUGGAG [JL Eng1 1.08 mod 4] (Eterna round: R96, puzzle: Exclusion NG 1)"
endpointunit = "nM"
measurement = 191

[[record]]
sequencecontent = "AAUUAAGCAAGCAGAUCCCACAUGAGGAUCACCCAUGUGCUCGUCUUAUAAGGUACUGUGACAAAAGUCACGGUACC [Mat - Sensor, turn-off var - Eli Mod - D73] (Eterna round: R97, puzzle: Sensor, turn-off variant 1)"
endpointunit = "nM"
measurement = 108

[[record]]
sequencecontent = "UCUCGUUGGCAAGGAUAUCCUACAUUGUUCUGGCCCGGGCAUGCUACAUGAGGAUCACCCAUGUGGGAGAAGGUGCGCCACUGC [Design 25] (Eterna round: R96, puzzle: Exclusion NG 2)"
endpointunit = "nM"
measurement = 95.5

[[record]]
sequencecontent = "AAAAGGCGAGGAUAUACAGACCUCGGAAAAUCAAAGCAGAGACAUGAGGAUCACCCAUGUAGAAGGCGCAACAA [Geerbiorer] (Eterna round: R97, puzzle: Exclusion 2)"
endpointunit = "nM"
measurement = 20.8


get_value(item= GGAUAAAACUGAGGAUAUGCGUAUCGCUAGCGAGCAGAAGGCAGACAUGAGGAUCACCCAUGUGAGUUCUCGAUAAGAAACACG [Prohibition 59 - Jieux - Exclusion NG 1] (Eterna round: R96, puzzle: Exclusion NG 1) , readout=apparent KD of MS2 coat protein) returns 145

Consider ACAUGAGGAUCACCCAUGUGAAAACAAUGGCUGACUUUGAGACAGGAUAUAGGUGCAUAUCAAACCUAGAAGGGUCAUUACUGG [Deportation 93 - Jieux - Exclusion NG 3] (Eterna round: R96, puzzle: Exclusion NG 3) . Its measured apparent KD of MS2 coat protein is 43.5

// apparent KD of MS2 coat protein lookup, sequence = AUUAAACAUGUAGGAUAUGCGUGGCGAAGCUAUGCAGAAGGACAUGAGGAUCACCCAUGUAAGAGCGUCUGCGUACAGAUGCAA [Mat - Exclusion NG 1 - Mod of JL - D85] (Eterna round: R96, puzzle: Exclusion NG 1) , result: 563

Lab book: apparent KD of MS2 coat protein of UCUCGGACAGGAUAUCUGUCAUCUGACAUGAGGAUCACCCAUGUCCUCGCCGCCAACCCAAGAGAAGGGUCCCACA [Eternabot (L1) Solution 76] (Eterna round: R97, puzzle: Exclusion 5) noted as 99.2

====

Listed here: items and their measured apparent KD of MS2 coat protein.
tested on: MS2 coat protein; assay: apparent KD of MS2 coat protein, switch ON state; designed switch direction (-1 OFF switch, 1 ON switch): 1; higher = weaker reporter binding; conditions: FMN input: 0 or 200 uM; Eterna round: R93 (includes R88 designs)
Give just the number in µM; leave the unit off.

[[record]]
sequencecontent = "AUAAAUAAAAGCAAGGAUAUCCAAAAGAAAACAUGAGGAUCACCCAUGUAAAAGAAAAUAAAAUGGGAGAAGGUGCAAAAUAAAU [viburnum 8]"
parameter = "apparent KD of MS2 coat protein"
measurement = 0.0148


According to the records, this sequence CUGGACGUAGGAUAGGAUAUAUGAAUAAUUACAUGAGGAUCACCCAUGUCCAUUUAUAUGGGAACAUAGAAGGGUUGUGGUUAAG [Mat - Same state - Malcolm Mod - D145] displays apparent KD of MS2 coat protein of 0.16

Note to self: apparent KD of MS2 coat protein recorded for GCUCCAGCUAGCAAGGAUAUGUAGGAUGCUACAUGAGGAUCACCCAUGUGCUGAAAUAAGUCCCGGCAGAAGGUGUGACUGGAGA [Laedtear] was 0.0168

apparent KD of MS2 coat protein measured on AUAUAUAUAAGACAGGAUAUCCUAAAGUAAACAUGAGGAUCACCCAUGUAAAGAAAGAAACUCAUGGAGAAGGGUCAAUAUAUAU [Mat - Same State 2 - Tesla mod - D81] = 0.0141

The sequence AAAACACAUGAGGAUCACCCAUGUAGAAAUACGGGAGGAUAUGCUAAAACGAAAGACAAUGUAGAAGGCCUAAAAG [saturn 10] showed apparent KD of MS2 coat protein equal to 0.0377

Lab note: GGGAGACAUGAGGAUCACCCAUGUGAGAAGAGGCGAGGAUAUCGAAAGAAAGAAGAGAAACGAGAAGGCGCGAGCU [salish99-SS1-056] gave apparent KD of MS2 coat protein of 0.0281

Documented apparent KD of MS2 coat protein of GAAAAACAUGAGGAUCACCCAUGUAGAAAUAUGGGAGGAUAUACAAAGACGAAAGUCGAAGUAGAAGGCCUAAAAG [Mat - Same State 1 - Eli mod - D23] : 0.0255

Field apparent KD of MS2 coat protein (entry GAAAAACAUGAGGAUCACCCAUGUAGAAAUAUGGGAGGAUAUACGAAGACGAAAGUCAAAGUAGAAGGCCUAAAAG [Mat - Same State 1 - Eli mod - D22] ) reads 0.028

AAGAAACAUGAGGAUCACCCAUGUAAAUUCAAGAGAGGAUAUCGUACAUGGAAGAUUCAACGAGAAGGCUCUAGAA [Pariah 3 (MS2 Riboswitches - Same State 1)] yielded apparent KD of MS2 coat protein of 0.0193

These data points were gathered from the supplement of paper PMC9170038.
